Sequence of the target: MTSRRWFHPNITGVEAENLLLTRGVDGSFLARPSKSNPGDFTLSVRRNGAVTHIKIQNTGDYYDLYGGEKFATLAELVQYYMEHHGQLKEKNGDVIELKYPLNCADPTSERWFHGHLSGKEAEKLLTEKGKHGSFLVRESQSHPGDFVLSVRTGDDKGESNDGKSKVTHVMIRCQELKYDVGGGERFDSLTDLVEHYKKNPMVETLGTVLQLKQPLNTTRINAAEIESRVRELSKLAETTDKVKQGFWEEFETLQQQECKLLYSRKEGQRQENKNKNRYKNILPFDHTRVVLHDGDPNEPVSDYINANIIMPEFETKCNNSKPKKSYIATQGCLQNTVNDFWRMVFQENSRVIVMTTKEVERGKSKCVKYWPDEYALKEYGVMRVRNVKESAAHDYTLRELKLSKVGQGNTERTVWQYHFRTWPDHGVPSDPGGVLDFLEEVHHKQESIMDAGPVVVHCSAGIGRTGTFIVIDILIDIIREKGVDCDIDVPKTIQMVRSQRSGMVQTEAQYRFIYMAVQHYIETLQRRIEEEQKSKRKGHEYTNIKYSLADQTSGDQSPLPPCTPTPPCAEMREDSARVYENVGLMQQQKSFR
Outcome Measure: Ki

So, `COC(=O)c1c(O)cccc1OC/C=C/c1ccc(F)c(-c2cc(C(=O)O)no2)c1` ? Its Ki was > 300 µM

* * *

- Tested Target: Human protein tyrosine phosphatase 1B (PTP1B, amino acid residues 1-321) (Homo sapiens)
- Sequence (P18031 1-321): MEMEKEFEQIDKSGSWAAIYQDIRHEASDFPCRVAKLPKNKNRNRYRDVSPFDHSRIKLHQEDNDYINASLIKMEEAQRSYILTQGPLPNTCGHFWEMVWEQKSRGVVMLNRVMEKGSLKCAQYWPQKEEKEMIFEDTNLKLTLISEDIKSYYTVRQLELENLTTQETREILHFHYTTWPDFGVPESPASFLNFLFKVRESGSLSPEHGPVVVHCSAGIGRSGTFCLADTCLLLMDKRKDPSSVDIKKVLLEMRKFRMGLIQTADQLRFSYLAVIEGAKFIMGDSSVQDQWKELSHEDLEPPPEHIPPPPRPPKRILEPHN
Outcome Measure: pKi
Reminder that pKi means the negative base-10 logarithm of the concentration expressed in mol/L.

The molecule `COC(=O)c1c(O)cccc1OC/C=C/c1ccc(F)c(-c2cc(C(=O)O)no2)c1` , when measured on Human protein tyrosine phosphatase 1B (PTP1B, amino acid residues 1-321) (Homo sapiens), yielded pKi of 5.16

* * *

- Tested Target: LAR (Homo sapiens)
- Sequence (P10586 1301-1639 limits assumed): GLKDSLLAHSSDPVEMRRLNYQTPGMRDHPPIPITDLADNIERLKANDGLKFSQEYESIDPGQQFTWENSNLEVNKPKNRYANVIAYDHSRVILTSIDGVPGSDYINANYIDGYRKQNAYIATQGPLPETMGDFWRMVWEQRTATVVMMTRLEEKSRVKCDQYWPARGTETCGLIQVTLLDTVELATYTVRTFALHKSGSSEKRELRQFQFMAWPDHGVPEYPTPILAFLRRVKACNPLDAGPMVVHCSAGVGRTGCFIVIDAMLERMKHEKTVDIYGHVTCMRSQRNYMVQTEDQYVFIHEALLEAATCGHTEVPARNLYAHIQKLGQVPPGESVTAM
- Procedure Summary: Inhibition constant determination, selectivity panel: LAR (pNPP hydrolysis)
- Study Conditions: competitive Ki; pNPP substrate; read-out: Phosphatase Inhibition Constants (Kic) LAR
Outcome Measure: Ki

So, `COC(=O)c1c(O)cccc1OC/C=C/c1cccc(-c2cc(C(=O)O)no2)c1` ? Its Ki was > 300 µM

* * *

- Tested Target: CDC25c (fusion with glutathione-S-transferase) (Homo sapiens)
- Sequence (P30307 whole entry, species assumed, the tested form may be a part): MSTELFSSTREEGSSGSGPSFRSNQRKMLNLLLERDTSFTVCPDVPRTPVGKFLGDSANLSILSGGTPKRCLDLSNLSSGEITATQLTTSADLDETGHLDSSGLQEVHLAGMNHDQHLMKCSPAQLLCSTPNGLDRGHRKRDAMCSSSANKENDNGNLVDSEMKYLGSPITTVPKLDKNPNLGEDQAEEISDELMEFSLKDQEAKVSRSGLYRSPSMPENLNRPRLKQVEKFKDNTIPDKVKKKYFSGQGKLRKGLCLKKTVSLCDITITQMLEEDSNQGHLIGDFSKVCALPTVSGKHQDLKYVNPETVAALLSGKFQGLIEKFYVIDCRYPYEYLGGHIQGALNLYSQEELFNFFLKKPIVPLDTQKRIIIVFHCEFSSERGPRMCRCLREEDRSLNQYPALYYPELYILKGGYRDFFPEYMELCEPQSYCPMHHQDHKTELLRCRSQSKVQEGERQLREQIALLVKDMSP
- Procedure Summary: Inhibition constant determination, selectivity panel: cdc25c (pNPP hydrolysis)
- Study Conditions: competitive Ki; pNPP substrate; read-out: Phosphatase Inhibition Constants (Kic) Cdc25c
pKi: −log10 of the molar value.
Outcome Measure: pKi

So, `COC(=O)c1c(O)cccc1OC/C=C/c1ccc(F)c(-c2cc(C(=O)O)no2)c1` ? Its pKi was < 3.52

***
So, `COC(=O)c1c(O)cccc1OC/C=C/c1cccc(-c2cc(C(=O)O)no2)c1` ? Its pKi was < 3.52

* * *

- Tested Target: TCPTP (Homo sapiens)
- Sequence (P17706 1-283): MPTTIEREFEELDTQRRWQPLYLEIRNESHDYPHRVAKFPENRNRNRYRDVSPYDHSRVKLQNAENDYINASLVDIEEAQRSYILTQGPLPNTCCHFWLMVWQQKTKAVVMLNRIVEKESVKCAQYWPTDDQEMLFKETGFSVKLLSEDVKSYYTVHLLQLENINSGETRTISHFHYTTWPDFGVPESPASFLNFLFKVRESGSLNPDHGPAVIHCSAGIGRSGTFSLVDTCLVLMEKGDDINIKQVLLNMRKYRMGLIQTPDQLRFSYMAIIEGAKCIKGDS
- Study Conditions: read-out: Phosphatase Inhibition Constants (Kic) TC-PTP; competitive Ki, +/- S.D.; pNPP substrate
Outcome Measure: Ki (µM)
Use µM as the unit, but write only the number.

So, `COC(=O)c1c(O)cccc1OC/C=C/c1ccc(F)c(-c2cc(C(=O)O)no2)c1` ? Its Ki was 164
